Where do the numbers come from? From patent US20210403582A1.

# Target: T1, human LIF protein (human, UniProt P15018 23-202)
# T1 construct: Bought recombinant protein (Sino Biological / Yiqiao Shenzhou 14890-HNAH) in most assays; also called recombinant human LIF protein; rhLIF
# T1 sequence (P15018 23-202 limits assumed): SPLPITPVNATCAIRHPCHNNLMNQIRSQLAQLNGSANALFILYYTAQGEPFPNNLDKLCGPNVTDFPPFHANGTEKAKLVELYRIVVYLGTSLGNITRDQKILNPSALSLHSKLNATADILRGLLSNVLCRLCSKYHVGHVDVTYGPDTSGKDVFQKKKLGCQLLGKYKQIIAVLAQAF
# Experiment: ELISA, antigen coated 0.5 ug/ml, 293S supernatant non-heated, antibody 0.2 ug/mL
# Experimental: Each well was coated with 100 μL of 0.5 μg/ml antigen and incubate overnight at 4° C., and the plates were washed three times with 300 μL of Wash Buffer. The plates were closed with 200 μL of Closure Buffer (2% bovine serum albumin) for 60 min at room temperature. The plates were washed three times with 300 μL of Wash Buffer. […] The OD 450 value was read by an enzyme marker. […]
Quantity: ELISA signal
Give your answer as a number; write no unit.

Could you share which ELISA signal value was measured for H1L3 (antibody, human IgG1, kappa, N297A, V domains shown, Humanized, human IgG1 / kappa) VH: EVMLLESGGGLVQPGGSLRLSCAASGFIFSSYAMSWVRQAPGTGLEWVATISSGGSNTYSPDTVKGRFTISRDNSKNTLYLQMNSLRAEDTAVYYCARYYGYYFDFWGQGTLLTVSS VL: DIHMTQSPSSLSASVGDRVTITCRASENIYSYLAWYQQKPGKSPQLLVYNAKTLAEGVPSRFSGSGSGTQFTLTISSLQPEDFATYYCQHHYVTPLTFGQGTKLEIKR ?
10800
